Every entry's value here was drawn from ChEMBL document CHEMBL3507680.

- test: Human HepG2 cell viability assay in 384 well format
- Assay type: toxicity, cell-based
- Design: dose 125 nL, time 70.5 hour; concentration not given beside the values
- condition.context: HepG2 cells, read-out: Inhibition
Provide the reported cytotoxicity at 70.5 h of each item.
Give bare numbers, in %.

Completed entries (count: 6):
compound	cytotoxicity at 70.5 h [%]
CC(=O)N(Cc1ncc(C(C)C)o1)C1CCN(Cc2ncc[nH]2)C1 (configuration not stated)	0.135
O=C1NCCN1C1CCN(CCOc2cccc3ccccc23)CC1	0.611
O=C(CCc1cc(O)no1)N1CCCC(COc2ccccc2F)C1 (configuration not stated)	-20.7
N#CCCCOc1cccnc1NC(=O)Cc1ccccc1F	0.586
CCc1nnc(N2C[C@@H](NC(C)=O)[C@H](c3ccc(C)o3)C2)s1	2.74
Cn1cc(CN2CCOC(c3cccc(-c4cncnc4)n3)C2)cn1 (configuration not stated)	-5.7

Each of the following entries comes with a recorded value; kindly state cytotoxicity at 70.5 h for each.
1. O=C(Cn1ccc2ncccc2c1=O)N1CCSCC1
2. COCC(=O)NC(Cc1cc(N(C)C)nc(C2CC2)n1)c1ccccc1 (configuration not stated)
3. Cc1cc(C)cc(N2CCN(Cc3cccnc3)CC2=O)c1
4. CN1CC(=O)N(c2cccc(F)c2)CC12CCN(Cc1ccccn1)C2 (configuration not stated)

1: 29.2; 2: -2.08; 3: -7.86; 4: -1.03

Quick one: give me cytotoxicity at 70.5 h for each item below, same order please.
1. CCN1CCCC(C)(C(=O)NCCCc2nc(C)cs2)C1 (configuration not stated)
2. O=C(NCCCc1ccc(O)cc1)C1(O)Cc2ccccc2C1

-10.4
-8.24

* * *

- test: Human HepG2 cell viability assay in 384 well format
- Type: toxicity, cell-based
- Parameters: dose 125 nL, time 70.5 hour; concentration not given beside the values
- condition.context: HepG2 cells, read-out: Inhibition
readout.name: cytotoxicity at 70.5 h (%)
Give bare numbers, in %.

molecule	readout.name	observed.value
COc1cccc(C(=O)N2C[C@@H](C(=O)O)[C@H](c3ccccc3C)C2)c1	cytotoxicity at 70.5 h	6.74
Cc1csc(N2CCN(C(=O)NCCNc3ncccn3)CC2)n1	cytotoxicity at 70.5 h	-5.98
O=C(Nc1ccccc1)[C@H]1CN2CCC1C[C@@H]2Cn1cc(CO)nn1 (some centres undefined)	cytotoxicity at 70.5 h	-9.02
CCn1nc(C)c(NC(=O)C(C)C)c1C	cytotoxicity at 70.5 h	-2.76

Below is a list of molecules. For each, state its recorded cytotoxicity at 70.5 h.
1. O=C(c1ccc(F)cc1)N1CCN2C[C@H](OCc3ccccn3)C[C@H]2C1
2. O=c1c2cnc(N3CCCC3)nc2ccn1-c1cccc(F)c1
3. Cn1cccc1C(=O)N1CCCC(Cn2cc(CO)nn2)C1 (centres undefined)
4. COc1cc(OC)cc(C(=O)NCc2nn(C)c3c2COCC3)c1
5. Cc1cc(C)n(CC2CCCN2CC(=O)N(C)C)n1 (centres undefined)
6. CCn1nc2c(cc1=O)CN(c1ncnc3ccsc13)CC2
7. Cn1ccnc1CN1CCCC(CCc2ccc(F)c(F)c2)C1 (centres undefined)
8. O=C(N1CCC(Oc2ccncc2)C1)C1(c2cccc(F)c2)CC1 (centres undefined)

1: -6.75; 2: -0.217; 3: -2.41; 4: 0.999; 5: -11.4; 6: -7.93; 7: -1.61; 8: -1.35

Below are some molecules; for each one, tell me its cytotoxicity at 70.5 h.
1. Cc1nn(C)c2ncc(CN3CCN(c4ncccn4)CC3)cc12
2. CC(C)c1nccn1C1CCCN(C(=O)c2cc(C3CC3)on2)C1 (centres undefined)
3. Cc1cccc(C(=O)N2CC(Cc3nccc4ccn(C)c34)C2)n1
4. CN(C)C(=O)N1CCc2c(nnn2C)C1COCc1ccccc1 (centres undefined)
5. Cc1cc(CN2CCN(C(=O)NC(C)c3cccnc3)CC2)no1 (centres undefined)
6. Cc1nn(C)c(C)c1C1CCCN1C(=O)c1cc[nH]n1 (centres undefined)

1. -21.9
2. -3.7
3. 1.37
4. -2.85
5. -8.62
6. -3.7

The following molecules each have a reported value; give each one's cytotoxicity at 70.5 h.
1. COc1ccc(CNC(=O)CCSCc2csc(C)n2)cn1
2. COc1cccc(S(=O)(=O)N2CCCCC2CCN2CCOCC2)c1 (centres undefined)

[-4.07, 24.6]

* * *

Please respond with reported cytotoxicity at 70.5 h for every item in the list.
- test: Human HepG2 cell viability assay in 384 well format
- Format: toxicity, cell-based
- Set-up: dose 125 nL, time 70.5 hour; concentration not given beside the values
- condition.context: HepG2 cells, read-out: Inhibition
Answers are plain numbers, in %.

molecule	cytotoxicity at 70.5 h / %
CCc1nnc(Nc2cccc(C3CCN(CCO)CC3)n2)s1	7.17
COCC(O)CNC(=O)c1coc(COc2ccc3sc(C)nc3c2)n1 (configuration not stated)	-9.49
COc1ccc(OCc2cc(C(=O)N3CCOCC3)n[nH]2)c(Cl)c1	-2.87

Quick request: cytotoxicity at 70.5 h for each listed item, please.
1. Cn1ccnc1C(=O)NC[C@@H]1OC[C@H]2CN(S(C)(=O)=O)CC[C@H]21
2. CN(C(=O)c1ccncc1Cl)c1ccccc1S(C)(=O)=O
3. NC(=O)Cn1ccnc1C1CCCN(Cc2nc3ccccc3s2)C1 (configuration not stated)
4. COC(=O)C1CCCN1CC(=O)NCc1ccc(OCC(N)=O)cc1 (configuration not stated)

-5.19
12.1
-7.02
4.54

* * *

Kindly state cytotoxicity at 70.5 h for each of the entries shown.
- test: Human HepG2 cell viability assay in 384 well format
- Format: toxicity, cell-based
- Parameters: dose 125 nL, time 70.5 hour; concentration not given beside the values
- condition.context: HepG2 cells, read-out: Inhibition
Answers are plain numbers, in %.

Recorded results for 8 compounds are shown here.
compound	readout.name	unit	observed.value
Cc1nn(C)c(Cl)c1C1CCCN1C(=O)c1nccnc1N (centres undefined)	cytotoxicity at 70.5 h	%	-11.6
COc1cc(C2(C(=O)NCCn3ccnc3)CCCC2)ccc1C	cytotoxicity at 70.5 h	%	-6.48
Cc1ccc(=O)n(CC2(O)CCN(Cc3ccsc3)CC2)n1	cytotoxicity at 70.5 h	%	-10.6
Cn1nccc1-c1ncc2c(c1C(=O)O)CCN(Cc1cccnc1)C2	cytotoxicity at 70.5 h	%	-2.63
COC(=O)C1C=CCN1C(=O)c1cc(COc2ccccc2)[nH]n1 (centres undefined)	cytotoxicity at 70.5 h	%	-5.33
COCCN(C)C(C(=O)O)c1ccc(Cl)c(F)c1 (centres undefined)	cytotoxicity at 70.5 h	%	-5.39
Cc1ccc(-c2nnc(CN3CCN(c4ccccn4)CC3)o2)cc1	cytotoxicity at 70.5 h	%	3.67
Cc1ccc(N2CC[C@H]3O[C@H](C(=O)NCc4ccco4)CC[C@H]32)nn1	cytotoxicity at 70.5 h	%	-18.3

// for each compound below, give its cytotoxicity at 70.5 h
1. COCc1c(C(=O)O)nnn1Cc1cccc(C(F)(F)F)c1
2. OC1CCN(c2ccc(CNc3nc4ccccc4s3)cc2F)CC1
3. O=C(c1cnccn1)N1CCc2onc(CN3CCCC3)c2C1
4. CN1CCN(C2CCN(CCOc3ccccc3F)CC2)C1=O
5. Cc1cnn(C2CCCN(C(=O)c3cc(C4CC4)on3)C2)c1 (centres undefined)
6. O=C(CC1CCCC1)NCCS(=O)(=O)N1CCN(c2ccccc2)CC1

-18.5
-9.14
1.69
-11.6
-4.84
-3.36

Please go through the list and note cytotoxicity at 70.5 h for each compound.
1. Cc1cnn(CC2CN(Cc3nnc(C4CC4)o3)CCO2)c1 (centres undefined)
2. Cc1nccn1-c1ccc(NC(=O)C2CCCN2Cc2ccoc2)cc1 (centres undefined)
3. Cc1cc2nc(SCC(=O)NC(C)C)n(Cc3ccco3)c(O)c-2n1
4. O=C(c1ccncc1F)N1CCCC(c2nccn2CC2CCC2)C1 (centres undefined)
5. Cc1n[nH]c(C)c1CCCN(C)Cc1c[nH]nc1-c1ccc(F)cc1
6. CC(C)c1cccc(-n2cc(O)c(C(N)=O)n2)c1

-5.68
-6.93
-14.4
-21.7
-4.19
25.8

Please go through the list and note cytotoxicity at 70.5 h for each compound.
1. COCCN1C(=O)CC[C@]12CC[C@@H](NC(=O)c1cc(C)on1)CC2
2. CCn1nc(C)c(CN(CCCOC)Cc2ccccn2)c1C
3. Cc1cc2c(c(-c3cncc(C(=O)N4CCCC4)n3)c1)OC(CN)C2 (centres undefined)

-5.63
8.89
-6.51

Query: cytotoxicity at 70.5 h; subject: CC(C)NC(=O)N1CCCn2cnc(CO)c2C1
6.26

* * *

Give measured BOTTOM for each item. Keep answers brief.
- test: Human HepG2 cell viability dose-response assay
- Assay type: toxicity, cell-based

Below are worked cases with known answers.
compound	BOTTOM
CN(CCC(F)(F)F)C(=O)C1CSCN1C(=O)C(C)(C)C (stereo not drawn)	0
CC(C)Cc1ccc(S(=O)(=O)Nc2ccc(=O)n(C)c2)cc1	0
CCCc1cc(=O)[nH]c(-n2nc(C3CC3)cc2N)n1	0

Consider the following items and state reported BOTTOM for each.
1. CCc1ncc2c(n1)CN(Cc1ncc(C(C)(C)C)o1)CC2
2. O=C(O)C(F)(F)F.O=C1COC2(CCN(CC3CCC3)CC2)CN1c1cncnc1
3. Cl.Cn1ccnc1N1CCN(C(=O)Cc2ccc(F)cc2)CC1
4. c1ccc(OCC2CC3(CCN(CC4CCOCC4)CC3)CO2)nc1 (stereo not drawn)
5. CCn1cc(CN(C)S(=O)(=O)c2ccc(Cl)cc2)cn1

0
0
0
0
0
